Tested on: U2OS
Assay: Multiplex assay against U2OS
Format: toxicity, cell-based
Conditions: human, 48 h, 1 µM, compound concentration 1 uM, replicate 1
measuredQuantity: Population Tubulin-Different-Phenotype (%)
Answers are plain numbers, in %.

Consider the following illustrative entries.
# structureSmilesString, endpointResult
rows = [
    ("CC[C@@H](C)Nc1nc(C)nc2c(-c3ccc(OC)nc3C)c(C)nn12", 1),
    ("Cc1cccc(NC(=O)CN2CCC(c3ccccn3)CC2)c1.Cl.Cl", 3),
    ("Cc1cnc(-c2cc(N3CCN(C(=O)CCS(C)(=O)=O)CC3)ncc2Cl)c(C)c1", 1),
    ("N#Cc1cc(F)cc(-c2nc(-c3ccc(F)cn3)no2)c1", 2),
    ("N#Cc1c(Oc2cccc(OS(=O)(=O)CCCC(F)(F)F)c2)cccc1C(F)(F)F", 3),
    ("CCc1cc2cc(NS(=O)(=O)c3ccc(C#N)cc3)ccc2n(CC)c1=O", 2),
    ("CC(C)COc1ccc(CNC(=O)N(Cc2ccc(F)cc2)C2CCN(C)CC2)cc1", 4),
    ("C[C@H](N)COC(=O)[C@@H](CCCCN)NC(=O)Cc1c(-c2ccc3ccccc3c2)[nH]c2c1ccc1ccccc12", 2),
    ("CC(C)(C)c1cc(NC(=O)Nc2ccc(-c3cn4c(n3)sc3cc(OCCN5CCOCC5)ccc34)cc2)no1", 3),
    ("Cc1c(CC(=O)O)c2cccnc2n1Cc1ccc(S(C)(=O)=O)cc1C(F)(F)F", 2),
]

Provide each entry's Population Tubulin-Different-Phenotype (%) from the list below.
1. O=C(CCCc1ccccc1)Nc1nc2ccccc2c(=O)s1
2. COc1ccccc1N1CCN(C[C@@H](C(=O)NC(C)(C)C)c2ccccc2)CC1.Cl.Cl
3. O=C1[C@H](Cc2ccc(O)cc2)N2C(=O)CCN(C(=O)NCc3ccccc3)[C@H]2CN1Cc1cccc2ccccc12
4. Cc1noc(-c2ccc(-c3ccc(CC(=O)O)cc3)cc2)c1NC(=O)O[C@H](C)c1ccccc1Cl
5. CC(C)c1noc(N2CCC(COc3ccc(-c4ccc(S(C)(=O)=O)cc4)nc3)CC2)n1

Output:
1: 1; 2: 1; 3: 3; 4: 3; 5: 2
